assay: Solubility in water and pH 4.5 buffer, HPLC; assay type: physicochemical; settings: water, 24 hours, 37±0.2° C.
propertyMeasured: Solubility (mg/mL) water
Answers without a unit are incomplete; give the number and then its unit.

Example entries begin here.
molecule="CC(C)C[C@](C)(N)COc1ccc(-c2ccnc(C(F)F)c2)nc1C(F)F [LX9211 dihydrogen phosphate and urea form U1]" result="24.4 mg/mL"
molecule="CC(C)C[C@](C)(N)COc1ccc(-c2ccnc(C(F)F)c2)nc1C(F)F [LX9211 dihydrogen phosphate form S1]" result="25.0 mg/mL"
molecule="CC(C)C[C@](C)(N)COc1ccc(-c2ccnc(C(F)F)c2)nc1C(F)F [LX9211 free base form A]" result="0.1 mg/mL"

Okay, now this molecule:
Param item = CC(C)C[C@](C)(N)COc1ccc(-c2ccnc(C(F)F)c2)nc1C(F)F [LX9211 dihydrogen phosphate form S3] ; retrieve measured Solubility (mg/mL) water.
25.0 mg/mL

====

Test: Solubility in water and pH 4.5 buffer, HPLC
Assay type: physicochemical
Settings: pH 4.5 buffer (USP), 24 hours, 37±0.2° C.
Method: The solubilities of LX9211 dihydrogen phosphate forms S1 and S3 and LX9211 dihydrogen phosphate and urea, and LX9211 free base form A were determined in water and pH 4.5 buffer as follows: About 80 mg of samples of the starting materials were weighed into 15 ml PP centrifuge tubes. […] Filtrates were sampled and concentration of the starting material was determined by HPLC according to corresponding standard.
Quick list: Solubility (mg/mL) pH 4.5 per entry.
Answers without a unit are incomplete; give the number and then its unit.

Example entries begin here.
molecule="CC(C)C[C@](C)(N)COc1ccc(-c2ccnc(C(F)F)c2)nc1C(F)F [LX9211 dihydrogen phosphate form S3]" result="13.8 mg/mL"
molecule="CC(C)C[C@](C)(N)COc1ccc(-c2ccnc(C(F)F)c2)nc1C(F)F [LX9211 free base form A]" result="9.7 mg/mL"
molecule="CC(C)C[C@](C)(N)COc1ccc(-c2ccnc(C(F)F)c2)nc1C(F)F [LX9211 dihydrogen phosphate form S1]" result="8.1 mg/mL"

Okay, now this molecule:
Param item = CC(C)C[C@](C)(N)COc1ccc(-c2ccnc(C(F)F)c2)nc1C(F)F [LX9211 dihydrogen phosphate and urea form U1] ; retrieve measured Solubility (mg/mL) pH 4.5.
16.4 mg/mL
